system: SBC-3 (Small Cell Lung Carcinoma); test: combination Emax (second highest fraction inhibited in the dose matrix, 72 h); higher = more inhibition; extreme values may be limits of the assay
metric: combination Emax
Answer using only a numeral; do not append any unit.

O=C(c1cc(Cc2n[nH]c(=O)c3ccccc23)ccc1F)N1CCN(C(=O)C2CC2)CC1 [Olaparib] + CN(CC[C@H](CSC1=CC=CC=C1)NC2=C(C=C(C=C2)S(=O)(=O)NC(=O)C3=CC=C(C=C3)N4CCC(CC4)[C@H](C5=CC=CC=C5C6=CC=C(C=C6)Cl)O)S(=O)(=O)C(F)(F)F)CCO [AZD4320] (first compound max 10 µM, 7x7, partner max 1 µM) has a reported combination Emax of 0.842

combination Emax in this record for C=CCn1c(=O)c2cnc(Nc3ccc(N4CCN(C)CC4)cc3)nc2n1-c1cccc(C(C)(C)O)n1 [AZD1775] + C1CN(CCC1(C(=O)N[C@@H](CCO)C2=CC=C(C=C2)Cl)N)C3=NC=NC4=C3C=CN4 [Capivasertib] (first compound max 3 µM, partner max 3 µM) : 0.881

Recorded result, COc1nnc2ccc(N3CCC(c4ccc(OCCN5CCN(C)C(=O)[C@H]5C)cc4)CC3)nn12 [AZD5153] + Cc1c2c(nn1C)CSCc1cc(n(C)n1)CSc1cc(c3ccccc3c1)OCCCc1c(C(=O)O)n(C)c3c-2c(Cl)ccc13 [AZD5991] (first compound max 1 µM, 7x7, partner max 1 µM) , combination Emax: 0.753
